Provenance of the data: PubChem BioAssay (NCI)

- procedure-summary: NCI Yeast Anticancer Drug Screen. Data for the mec2-1 strain (AID 157)
- applied-conditions: S. cerevisiae mec2-1 strain, at 50.0 µM, hits give high values
- Method: Growth inhibition of yeast strains with defined genetic alterations is measured as a screen for potential anti-cancer activity. Selected strains with alterations in DNA damage repair or cell cycle control were exposed to compounds and growth inhibition was measured relative to vehicle treated controls. The strain used in this assay is mec2-1
The panel holds about 79,000 compounds, 15% with a hit somewhere; the sample as a whole holds those more often.
outcome-measure: growth inhibition (%)
Output spec: scalar in %, unitless text.

Any idea what growth inhibition was measured for "Cc1cc(N/N=C/c2ccc([N+](=O)[O-])o2)c2cc3c(cc2n1)OCO3" ?
92.3

// query: "CN(C)c1cc[c]([Sn]([c]2ccc(N(C)C)cc2)([c]2ccc(N(C)C)cc2)[c]2ccc(N(C)C)cc2)cc1"
34.1

// query: "S=C(NCc1ccccc1)N/N=C/c1ccccn1"
17.4

// query: "CCC(=O)N(CCC(C)C)c1ccccc1"
-2.15

// query: "COc1ccc(C(c2ccc(OC)c(OC)c2)C(Cl)(Cl)Cl)cc1OC"
93.4

// query: "Cc1cccc2c(CBr)cc(=O)[nH]c12"
90.1

// query: "COc1cc(CCN=Cc2cc(Cl)cc(Cl)c2O)c([N+](=O)[O-])cc1OC"
69.5

// query: O=C(CC(O)c1ccccc1)Sc1ccccc1 (stereo unspecified)
50

// query: "COc1ccc2nc3cc(Cl)ccc3c(NCCC[N+](C)(C)CCCCCCCCCCCCCCCC[N+](C)(C)CCCNc3c4ccc(Cl)cc4nc4ccc(OC)cc34)c2c1"
43.6

// query: "Cc1ccc(S(=O)(=O)N/N=C/c2cc(I)cc([N+](=O)[O-])c2O)cc1"
95.8

// query: "CSC(=Nc1ccccc1)/N=C(\SCc1ccccc1)N(C)C"
99.7

----------
Field: growth inhibition. Provide a value for each of the molecules that follow.
- procedure-summary: NCI Yeast Anticancer Drug Screen. Data for the sgs1 mgt1 strain (AID 161);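 also: 0% = growth of cultures given vehicle only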
- applied-conditions: S. cerevisiae sgs1 mgt1 strain, at 5.0 µM (retest, dose inferred, filed as 0.5), hits give high values
- Procedure: Growth inhibition of yeast strains with defined genetic alterations is measured as a screen for potential anti-cancer activity. Selected strains with alterations in DNA damage repair or cell cycle control were exposed to compounds and growth inhibition was measured relative to vehicle treated controls. The strain used in this assay is sgs1 mgt1
This is part of a sample that, as a whole, favours compounds with a hit. Of some 79,000 tested, about 15% had one in any assay.
Output spec: scalar in %, unitless text.

Any idea what growth inhibition was measured for "CC(C)(C)c1ccc(-c2nnc(SCc3ccc(Cl)cc3)n2-c2cccc(C(F)(F)F)c2)cc1" ?
-13

// query: "Nc1ccc2c(c1)S(=O)(=O)c1cc(O)ccc1O2"
13

// query: "O=C(CC(=O)c1ccncc1)c1ccccc1"
1

// query: "c1ccc2cc3nc4ccccc4nc3cc2c1"
13

// query: "CC(=O)OC(OC(C)=O)c1ccc([N+](=O)[O-])s1"
10

// query: "Cc1c(C(=O)N(CCO)CCO)[n+](=O)c2ccccc2n1[O-]"
38

// query: "O=C(c1ccccc1)c1ccc2c(c1)CCCC2"
-5

// query: O=C(O)C1(Cc2ccc3c(c2)CCC3)Cc2ccccc2C1=O (stereo not given)
3

// query: "Nc1ccc(C(=O)Nc2ccc(C(=O)Nc3ccc(/C=C/c4ccc(NC(=O)c5ccc(N)cc5)cc4S(=O)(=O)O)c(S(=O)(=O)O)c3)cc2)cc1"
3

// query: "Cn1nc(N)c2cccnc21"
-1

// query: "Cc1cc(Cl)cc2c1OCN(C)C2"
1

// query: CCOC(=O)C1CCC(=O)O1 (stereo not given)
4

// query: "O=S(=O)(Nc1ccccc1)c1ccccc1C#Cc1ccccc1"
10

// query: O=C(c1ccc(Br)cc1)C1N=NCC1c1ccccc1 (stereo not given)
4

// query: O=C(CCC(NC(=O)OCc1ccccc1)C(=O)OCc1ccccc1)NC(CSCc1ccccc1)C(=O)NCC(=O)Oc1c(Cl)c(Cl)c(Cl)c(Cl)c1Cl (stereo not given)
7

// query: O=[N+]([O-])C1(CO)COC(CCc2ccccc2)OC1 (stereo not given)
2

// query: "CCCCCCCCCCCC(=O)NN"
6

// query: "CC(=O)Oc1ccc(C(C)(C)CC(C)(C)C)cc1"
-1

// query: "CCCCCCCCCCC[N+](C)(C)CCCCCC[N+](C)(C)CCCCCCCCCCC"
99

// query: "Cc1ccc(NCCN(C)C)c2c(=O)c3c(O)cccc3sc12"
30

// query: "O=C(/C=C\c1ccc([N+](=O)[O-])o1)/C=C/c1ccc([N+](=O)[O-])o1"
52

// query: "O=[N+]([O-])c1c(Cl)cccc1-c1c[nH]cc1Cl"
19

// query: O=C(O)C(O)C(O)C(OC1OC(CO)C(O)C(O)C1O)C(O)CO.[Br][Pt].[NH-]C1CCCCC1[NH-] (stereo not given)
89

// query: CC(c1ccccc1C(=O)O)c1cccc2ccccc12 (stereo not given)
6

// query: "Cc1cc(Nc2ccc(N=Nc3ccc(O)c4ncccc34)cc2)nc(C)n1"
-2

// query: "O=C(N/C(=C\c1ccc(Cl)cc1)c1nc2ccccc2[nH]1)c1ccccc1"
10

// query: "C[N+]1(C)C/C(=C\C=C\c2ccccc2)C(=O)/C(=C/C=C/c2ccccc2)C1"
17

// query: "c1ccc2c(c1)CCc1[nH]c3c(c1-2)-c1ccccc1CC3"
21

// query: "CC/C(=C(\CC)c1ccc(OCCN2CCOCC2)cc1)c1ccc(OCCN2CCOCC2)cc1"
67

// query: "COc1ccc(N=C2C(=S)N(c3ccc(OC)cc3)/C(=N/S(=O)(=O)c3ccccc3)N2c2ccccc2)cc1"
-23

// query: "O=C1Oc2ccccc2C(=O)/C1=C/N1C(=O)/C(=C/c2ccc([N+](=O)[O-])cc2)SC1=S"
22

// query: "O=C1/C(=C/c2ccc(Cl)c(Cl)c2)CN(C(=O)CCN2CCOCC2)C/C1=C\c1ccc(Cl)c(Cl)c1"
99

// query: CC(Br)C(=O)c1ccc(OCc2ccccc2)cc1 (stereo not given)
8

// query: CC(O)C1CCCC[N+]1(C)C (stereo not given)
-1

// query: O=C(Nc1nc2ccc([N+](=O)[O-])cc2s1)C(=O)C(C1OC(=O)c2ccccc21)[N+](=O)[O-] (stereo not given)
9

// query: CC(C)C1/C(=N/O)CC(c2ccccc2)N(N=O)C1c1ccccc1 (stereo not given)
3

// query: COc1ccc(C(c2cc3c(cc2O)OCO3)N2CCCC2)c(OC)c1 (stereo not given)
0

// query: "COc1cc(CCN=Cc2cc(Cl)cc(Cl)c2O)c([N+](=O)[O-])cc1OC"
53

// query: "CC(=O)N(C1=CC(=O)c2ccccc2C1=O)c1ccc(Cl)cc1"
95

// query: COc1ccccc1C1c2cc3c(cc2OC(C)(O)C1C)OCO3 (stereo not given)
1

// query: "Oc1ccc(O)c2c1CC=C(Cl)C2"
13

// query: "NC(=O)N/N=C/c1ccc(Cl)s1"
2

// query: "CC1=C(C(=O)Nc2ccccc2)C(c2ccc(C(C)C)cc2)C(C(=O)Nc2ccccc2)=C(C)N1"
0

// query: "O=[N+]([O-])c1ccc(S)c(Cl)c1"
28

// query: Fc1cccc(CSc2ncnc3c2ncn3C2CCCS2)c1 (stereo not given)
6

----------
- procedure-summary: NCI Yeast Anticancer Drug Screen. Data for the bub3 strain (AID 167)
- applied-conditions: S. cerevisiae bub3 mutant strain, at 50.0 µM (retest, dose inferred, filed as 5.0), hits give high values
This is part of a sample that, as a whole, favours compounds with a hit. Of some 79,000 tested, about 15% had one in any assay.
Kindly return Y if reported growth inhibition is no lower than 60%; return N if it is lower.

Identify whether the reported growth inhibition of the following compound is 60% or greater: "CCCCCCCCCCCCOc1c(Cl)cc(Cl)c(Cl)c1Cc1c(O)c(Cl)cc(Cl)c1Cl"
Y

// query: "ClC1=C(Cl)C(Cl)(C(Cl)(Cl)Cl)C(Cl)=C1Cl"
Y

// query: "CCC(=O)N(CCC(C)C)c1ccccc1"
N

// query: "COC(=O)/C=C/c1cccc[n+]1[O-]"
N

// query: "O=C1COC(=O)/C1=C\C=C\c1ccccc1"
N

// query: "COc1ccc2nc3cc([N+](=O)[O-])ccc3c(NCCO)c2c1"
N

// query: CN(C)C1=NC2=S(SC(Nc3ccccc3)=N2)S1 (centres undefined)
N

// query: "O=C1Oc2ccccc2C(=O)/C1=C/N1C(=O)/C(=C/c2ccccc2)NC1=S"
N

// query: CCC(c1ccccc1)N1C(=O)c2ccccc2S1(=O)=O (centres undefined)
N

// query: "O=C1/C(=C/c2ccccc2[N+](=O)[O-])COc2ccccc21"
Y

// query: "COc1ccc(-c2c(COC(C)=O)c(COC(C)=O)c3n2CCC3)cc1"
N

// query: CCCC#CC(O)(C(=O)OC1CCN(C)CC1)C1CCCCC1 (centres undefined)
N

// query: CCOC(C)(OCC)C(N)c1ccccc1 (centres undefined)
N

// query: "O=C1C=CC(=O)N1c1ccccc1[N+](=O)[O-]"
Y

// query: "O=C1CSc2ccccc2-n2cccc21"
Y

// query: "O=C1C=CC(=O)c2c(O)c(N3CCN(CCOCCO)CC3)c(Br)c(O)c21"
Y

// query: Cc1ccc(C2SCC(=O)N2c2ccc(-n3c(-c4ccccc4)nc4ccccc4c3=O)cc2)cc1 (centres undefined)
Y

// query: "CCCc1cc2c(cc1CN(C#N)Cc1cc3c(cc1CCC)OCO3)OCO2"
Y

// query: "NNC(=O)c1ccc(N)cc1O"
N

// query: "N#Cc1ccc(OC(=O)Nc2c(Cl)cccc2Cl)cc1"
Y

// query: CCN1CCC(O)(/C=C/c2ccccc2C)C(C(=O)/C=C/c2ccccc2C)C1 (centres undefined)
Y

// query: "CCCC(=O)c1ccc(OC)cc1"
Y

// query: "Cc1cc([N+](=O)[O-])ccc1NC(=O)N(C)CCOC(=O)Nc1ccccc1"
Y

// query: CN(/N=C\c1ccc(Cl)cc1)C(c1ccc(Cl)cc1)N(C)/N=C/c1ccc(Cl)cc1 (centres undefined)
Y
